Data credit: ChEMBL document CHEMBL3988442

Test system: Wolbachia pipientis
Assay: Anti-Wolbachia Cell-Based Screen
Format: functional
Parameters: scale not given: in the data most compounds retested in dose-response had high values
Settings: 5 µM
Among all 48,000 compounds or so, about 13,000 (27%) showed an effect of 50% or more. The list shows a part of the results.
Entries and their Percent Effect
Give just the number in %; leave the unit off.

COMPOUND | Percent Effect, %
N#CCCN(c1ccc(F)cc1)S(=O)(=O)CC1CCCCO1 (stereo not given) | -8.338
CCS(=O)(=O)N1CCCC(c2nccn2Cc2cccnc2)C1 (stereo not given) | -2.411
CN1C(=O)CCc2cc(NC(=O)C3CCCC3)ccc21 | -13.79
CNS(=O)(=O)c1cc(C(=O)N(C)Cc2sccc2C)c(C)o1 | -10.4
O=C(c1cnc(O)cn1)N(Cc1ccsc1)CC1CCCO1 (stereo not given) | -2.864
COCC(=O)N1C[C@H]2CCCC(OCc3cccnc3)[C@H]2C1.O=C(O)C(F)(F)F (stereo not given in full) | -11.84
CC(C)CN1C(=O)C2(CCN(Cc3ccoc3)C2)c2ccccc21.O=C(O)C(F)(F)F (stereo not given) | 60.6
Cc1cc(N(C)Cc2ncc[nH]2)nc(-c2ccccc2)n1 | 4.008

Q: Quote Percent Effect reported for Cc1nc2ccc(C(=O)N(CCC#N)CCC#N)cc2nc1C please.
Ans: -2.079

Q: Recall and state the measured Percent Effect for CC(O)CN1CC2(CCC1=O)CCN(C(=O)c1cnn(C)c1)CC2 (stereo not given) .
Ans: -4.211
